Entries annotated with measured koff
system-tested: canine IL-4RA (construct not given) (canine)
method: SPR, IL-4RA immobilised, periplasmic Fab
Give the number; s⁻¹ is assumed, so skip it.

binder	measurement-units	koff
FJ2246MP10G07 (Fab, V domains shown) VH: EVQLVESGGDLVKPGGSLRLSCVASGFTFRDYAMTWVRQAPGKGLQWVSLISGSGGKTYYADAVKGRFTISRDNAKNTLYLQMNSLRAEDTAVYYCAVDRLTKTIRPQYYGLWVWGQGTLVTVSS VL: DIVMTQTPLSLSVSPGETASISCRSSQSLLYSIGYNYLDWYLQKPGQSPQGLIYLGSKRASGVPDRFSGSGSGTDFTLRISRVEADDTGVYYCMQGLHSPLTFGQGTKLEIK	s⁻¹	0.000111

Req: Let me know recorded koff for FJ2246MP05A03 (Fab, V domains shown) VH: EVQLVESGGDLVKPGGSLRLSCVASGLPFRDYAMAWVRQAPGKGLQWVSLISGSGGKTYYADAVKGRFTISRDNAKNTLYLQMNSLRAEDTAVYYCAVDRLTKTIRPQYYGLWVWGQGTLVTVSS VL: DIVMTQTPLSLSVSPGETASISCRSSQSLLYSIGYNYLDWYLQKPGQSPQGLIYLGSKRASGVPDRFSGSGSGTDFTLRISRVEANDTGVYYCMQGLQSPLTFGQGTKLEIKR , thanks.
Resp: 0.000124

Req: Let me know recorded koff for FJ2246MP06H07 (Fab, V domains shown) VH: EVQLVESGGDLVKPGGSLRLSCVASGFTFRDYAMTWVRQAPGKGLQWVSLINGTGGKTYYADAVKGRFTISRDNAKNTLYLQMNSLRAEDTAVYYCAVDRLTKTIRPQYYGLWAWGQGTLVTVSS VL: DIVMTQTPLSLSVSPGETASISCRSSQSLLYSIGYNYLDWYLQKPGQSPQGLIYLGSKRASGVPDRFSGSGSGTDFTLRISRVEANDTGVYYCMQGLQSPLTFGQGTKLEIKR , thanks.
Resp: 7.5e-05
